Sourced from ChEMBL document CHEMBL1141439

Reported pIC50 values for the following molecules.
Test system: HL-60
measurement.protocol: Antiproliferative activity against human HL60 cells
Type: functional, cell-based
pIC50: −log10 of the molar value.
outcome.measure: pIC50

molecule=C=CC(C)(C)c1ccc(O)c(CC=C(C)C)c1 outcome_measure=pIC50 result=5.57
molecule=C=CC(C)(C)c1cc2c(cc1O)C=CC(C)(C)O2 outcome_measure=pIC50 result=5.25
molecule="O=C1C2=C(C=CC(C(=O)O)N2)C(=O)C2=C1NCCS2(=O)=O (centres undefined)" outcome_measure=pIC50 result=4.14
molecule=C=CC(C)(C)C1=CC(=O)C(CC=C(C)C)=CC1=O outcome_measure=pIC50 result=6.47
